experimentalSystem: T1, Cynomolgus CXCR2 (cynomolgus, UniProt Q28519 3-353 (rhesus entry))
T1 construct: On transfected HEK293T or RBL-2H3 cells; native on cynomolgus neutrophils in the WBSC assay; also called cCXCR2; cynoCXCR2
T1 chain: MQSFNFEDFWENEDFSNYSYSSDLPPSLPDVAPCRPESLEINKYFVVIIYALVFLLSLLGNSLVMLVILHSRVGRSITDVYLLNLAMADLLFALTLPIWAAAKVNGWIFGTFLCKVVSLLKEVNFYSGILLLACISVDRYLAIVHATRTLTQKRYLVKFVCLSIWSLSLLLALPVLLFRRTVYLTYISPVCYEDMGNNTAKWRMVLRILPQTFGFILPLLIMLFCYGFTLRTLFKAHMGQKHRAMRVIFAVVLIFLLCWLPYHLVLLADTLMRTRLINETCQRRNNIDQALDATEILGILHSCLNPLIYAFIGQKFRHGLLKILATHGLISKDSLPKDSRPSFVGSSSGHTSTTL
assay: FACS competition vs 3 nM FMAT-Blue Gro-α
readoutType: % inhibition of max (%)
I only need the number, in %, no unit after it.

- CXCR20021 (bispecific antibody, Biparatopic: two VHH joined by a GlySer linker; also called 127D1-35GS-163E3; 127D1-163E3; not shown: C-terminal c-myc tag and His6 tag coded by pAX100) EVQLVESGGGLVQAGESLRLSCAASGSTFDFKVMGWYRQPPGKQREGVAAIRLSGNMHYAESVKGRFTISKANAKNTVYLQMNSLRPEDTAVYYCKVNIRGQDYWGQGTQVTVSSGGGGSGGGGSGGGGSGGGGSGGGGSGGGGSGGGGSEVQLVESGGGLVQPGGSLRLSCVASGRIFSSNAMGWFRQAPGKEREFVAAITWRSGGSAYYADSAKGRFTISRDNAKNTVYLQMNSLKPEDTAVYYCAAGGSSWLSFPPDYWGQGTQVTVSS: 98.5

Lab note: CXCR20025 (bispecific antibody, Biparatopic: two VHH joined by a GlySer linker; also called 163D2-35GS-127D1; not shown: C-terminal c-myc tag and His6 tag coded by pAX100) EVQLVESGGGLVQAGGSLRLSCAASGRTFSDYAMGWFRQAPGKEREFVAAITWNGGRVFYTASVKGRFTISRDNAKNTMYLQMNSLKPEDTAVYYCAADKDRRTDYLGHPVAYWGQGTQVTVSSGGGGSGGGGSGGGGSGGGGSGGGGSGGGGSGGGGSEVQLVESGGGLVQAGESLRLSCAASGSTFDFKVMGWYRQPPGKQREGVAAIRLSGNMHYAESVKGRFTISKANAKNTVYLQMNSLRPEDTAVYYCKVNIRGQDYWGQGTQVTVSS gave % inhibition of max of 98.5

Briefly, % inhibition of max measured for CXCR20028 (other, Biparatopic: two VHH joined by a GlySer linker; also called 97A9-35GS-54B12; 97A9-54B12; not shown: C-terminal c-myc tag and His6 tag coded by pAX100) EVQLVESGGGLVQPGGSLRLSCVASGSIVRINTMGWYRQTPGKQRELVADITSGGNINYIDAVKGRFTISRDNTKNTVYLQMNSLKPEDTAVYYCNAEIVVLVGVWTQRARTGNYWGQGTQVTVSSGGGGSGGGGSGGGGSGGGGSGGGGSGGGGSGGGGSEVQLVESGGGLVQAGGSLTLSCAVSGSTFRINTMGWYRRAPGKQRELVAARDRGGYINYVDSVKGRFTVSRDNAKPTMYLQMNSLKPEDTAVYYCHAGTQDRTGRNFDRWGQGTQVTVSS : 96

Value of % inhibition of max reported for the binder CXCR20029 (other, Biparatopic: two VHH joined by a GlySer linker; also called 163E3-35GS-54B12; not shown: C-terminal c-myc tag and His6 tag coded by pAX100) EVQLVESGGGLVQPGGSLRLSCVASGRIFSSNAMGWFRQAPGKEREFVAAITWRSGGSAYYADSAKGRFTISRDNAKNTVYLQMNSLKPEDTAVYYCAAGGSSWLSFPPDYWGQGTQVTVSSGGGGSGGGGSGGGGSGGGGSGGGGSGGGGSGGGGSEVQLVESGGGLVQAGGSLTLSCAVSGSTFRINTMGWYRRAPGKQRELVAARDRGGYINYVDSVKGRFTVSRDNAKPTMYLQMNSLKPEDTAVYYCHAGTQDRTGRNFDRWGQGTQVTVSS is 98.5

% inhibition of max for CXCR20014 (bispecific antibody, Biparatopic: two VHH joined by a GlySer linker; also called 97A9-35GS-2B2; 97A9-2B2; not shown: C-terminal c-myc tag and His6 tag coded by pAX100) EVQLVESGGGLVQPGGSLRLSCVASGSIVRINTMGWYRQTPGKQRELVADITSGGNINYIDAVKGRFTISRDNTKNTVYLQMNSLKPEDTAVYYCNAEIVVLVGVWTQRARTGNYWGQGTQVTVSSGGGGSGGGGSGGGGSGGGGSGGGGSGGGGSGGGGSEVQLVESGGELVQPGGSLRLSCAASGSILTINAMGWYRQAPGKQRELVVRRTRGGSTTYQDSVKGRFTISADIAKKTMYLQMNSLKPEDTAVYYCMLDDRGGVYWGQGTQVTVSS is 98.5
